# test.system: μ opioid receptor (Homo sapiens, UniProt P35372)
# Construct: expressed in transfected cells; host or cells: CHO cells (membranes)
# assay.comment: Competition binding assay on membranes of CHO cells expressing μ opioid receptor, [3H]-labeled ligand
# test.conditions: Table 2-1; read-out: μOR Ki
Structures can show the parent of a compound that is named as a salt.
# key: entry, value: Ki
measurement.name: Ki (nM)

• COc1cccc(C2(O)CCN(S(=O)(=O)C[C@@]34CC[C@@H](CC3O)C4(C)C)CC2CN(C)C)c1 (stereo partly shown) [FWBH26, hydrochloride] = 11.5
• COc1cccc(C2(O)CCN(S(=O)(=O)C[C@@]34CC[C@@H](CC3=O)C4(C)C)CC2CN(C)C)c1 (stereo partly shown) [FWBH24, hydrochloride] = 65.1
• COc1cccc(C2(O)CCN(S(=O)(=O)C(C)C)CC2CN(C)C)c1.Cl (stereo not shown) [FWBH20, hydrochloride] = 255
• COc1cccc(C2(O)CCN(S(=O)(=O)Cc3ccc(Cl)cc3)CC2CN(C)C)c1.Cl (stereo not shown) [FWBH11, hydrochloride] = 712
• COc1cccc(C2(O)CCN(S(=O)(=O)c3ccccc3)CC2CN(C)C)c1.Cl (stereo not shown) [FWBH16, hydrochloride] = 87.7
• C=CCS(=O)(=O)N1CCC(O)(c2cccc(OC)c2)C(CN(C)C)C1.Cl (stereo not shown) [FWBH21, hydrochloride] = 40.4
• CCS(=O)(=O)N1CCC(O)(c2cccc(OC)c2)C(CN(C)C)C1.Cl (stereo not shown) [FWBH18, hydrochloride] = 180

====

# test.system: κ opioid receptor (Homo sapiens, UniProt P41145)
# Construct: expressed in transfected cells; host or cells: CHO cells (membranes)
# assay.comment: Competition binding assay on membranes of CHO cells expressing κ opioid receptor, [3H]-labeled ligand
# test.conditions: 0.5 h; Table 5-1; 1 μM concentration of compound; read-out: κOR Combination rate (%)
Counter-ions that a name gives are not always drawn.
measurement.name: inhibition at 1 µM (%)

• COc1cccc(C2(O)CCN(C(=O)Cc3cccs3)CC2CN(C)C)c1.Cl (stereo not drawn) [FWBE8, hydrochloride] = 32.5
• COc1cccc(C2(O)CCN(C(=O)Cc3cccc(OC(F)(F)F)c3)CC2CN(C)C)c1.Cl (stereo not drawn) [FWBE6, hydrochloride] = 13.5
• COc1cccc(C2(O)CCCCC2CN(C)C)c1 (stereo not drawn) [Tramadol, reference compound] = 0
• COc1cccc(C2(O)CCN(C(=O)Cc3ccccc3Cl)CC2CN(C)C)c1 (stereo not drawn) [FWBE20, hydrochloride] = 34.8
• COc1cccc(C2(O)CCN(C(=O)Cc3cccc(C#N)c3)CC2CN(C)C)c1.Cl (stereo not drawn) [FWBE21, hydrochloride] = 42.3
• COc1cccc(C2(O)CCN(C(=O)Cn3cnnn3)CC2CN(C)C)c1.Cl (stereo not drawn) [FWBE7, hydrochloride] = 22.9
• COc1cccc(C2(O)CCN(C(=O)Cc3ccc(Cl)cc3)CC2CN(C)C)c1.Cl (stereo not drawn) [FWBE19, hydrochloride] = 39.4
• COc1cccc(C2(O)CCN(C(=O)c3cc(F)c(F)cc3F)CC2CN(C)C)c1.Cl (stereo not drawn) [FWBE5, hydrochloride] = 23
• COc1cccc(C2(O)CCN(C(=O)Cc3cc(F)c(F)cc3F)CC2CN(C)C)c1.Cl (stereo not drawn) [FWBE18, hydrochloride] = 61.6

====

# test.system: μ opioid receptor (Homo sapiens)
# Construct: expressed in transfected cells; host or cells: CHO cells (membranes)
# assay.comment: Competition binding assay on membranes of CHO cells expressing μ opioid receptor, [3H]-labeled ligand
# test.conditions: Table 5-1; read-out: μOR Ki
// boundary case: Ki equal to 0.07 µM maps to class 0; strictly smaller maps to class 1

- COc1cccc(C2(O)CCN(C(=O)Cc3ccc4ccccc4c3)CC2CN(C)C)c1.Cl (stereo not shown) [FWBE15, hydrochloride]: class 0
- COc1cccc(C2(O)CCN(C(=O)Cc3cccs3)CC2CN(C)C)c1.Cl (stereo not shown) [FWBE8, hydrochloride]: class 1
- COc1cccc(C2(O)CCN(C(=O)Cc3cccc4ccccc34)CC2CN(C)C)c1.Cl (stereo not shown) [FWBE16, hydrochloride]: class 0
- COc1cccc(C2(O)CCN(C(=O)CCc3cccc(C(F)(F)F)c3)CC2CN(C)C)c1.Cl (stereo not shown) [FWBE10, hydrochloride]: class 0
- COc1cccc(C2(O)CCN(C(=O)C3(c4ccccc4)CCC3)CC2CN(C)C)c1.Cl (stereo not shown) [FWBE25, hydrochloride]: class 0
- COc1cccc(C2(O)CCN(C(=O)Cn3ccc4ccccc43)CC2CN(C)C)c1.Cl (stereo not shown) [FWBE14, hydrochloride]: class 0
- COc1cccc(C2(O)CCN(C(=O)Cc3cccc(F)c3)CC2CN(C)C)c1.Cl (stereo not shown) [FWBE12, hydrochloride]: class 0
- COc1cccc(C2(O)CCN(C(=O)Cc3cccc([N+](=O)[O-])c3)CC2CN(C)C)c1.Cl (stereo not shown) [FWBE22, hydrochloride]: class 0
- COc1cccc(C2(O)CCN(C(=O)C3(c4ccccc4)CCCCC3)CC2CN(C)C)c1.Cl (stereo not shown) [FWBE27, hydrochloride]: class 1
- COc1cccc(C2(O)CCN(C(=O)Cc3cccc(Cl)c3)CC2CN(C)C)c1.Cl (stereo not shown) [FWBE9, hydrochloride]: class 1
- COc1cccc(C2(O)CCN(C(=O)C(C)(C)c3ccccc3)CC2CN(C)C)c1.Cl (stereo not shown) [FWBE23, hydrochloride]: class 1
- COc1cccc(C2(O)CCN(C(=O)C3(c4ccccc4)CCCC3)CC2CN(C)C)c1.Cl (stereo not shown) [FWBE26, hydrochloride]: class 0

====

# test.system: μ opioid receptor (Homo sapiens)
# Construct: expressed in transfected cells; host or cells: CHO cells (membranes)
# assay.comment: Competition binding assay on membranes of CHO cells expressing μ opioid receptor, [3H]-labeled ligand
# test.conditions: Table 1-1; 10 μM concentration of compound; mean ± SD of three measurements; read-out: μOR Binding rate (%)
# key: entry, value: inhibition at 10 µM
measurement.name: inhibition at 10 µM

- COc1cccc(C2(O)CCC(NS(=O)(=O)c3cccc(Cl)c3)CC2CN(C)C)c1 (stereo not drawn): 79.7%
- COc1cccc(C2(OC(=O)c3ccccc3)CCC(NS(=O)(=O)c3ccccc3)CC2CN(C)C)c1 (stereo not drawn): 80.9%
- COc1cccc(C2(OC(=O)c3ccccc3)CCC(N(C)S(=O)(=O)Cc3ccccc3)CC2CN(C)C)c1 (stereo not drawn): 81.2%

====

# test.system: δ opioid receptor (Homo sapiens, UniProt P41143)
# Construct: expressed in transfected cells; host or cells: CHO cells (membranes)
# assay.comment: Competition binding assay on membranes of CHO cells expressing δ opioid receptor, [3H]-labeled ligand
# test.conditions: 0.5 h; Table 3-1; 1 μM concentration of compounds; read-out: δOR Binding rate (%)
# Experimental: CHO cells expressing p opioid receptor, δ opioid receptor and κ opioid receptor were cultured in 10 cm^2 culture dishes (F-12 medium+10% neonatal bovine serum) for several days, and the culture fluid was aspirated after the cells had grown to the bottom of the dishes; 3 ml of PBS/EDTA solution (0.1M NaCl, 0.01M NaH2PO4, 0.04% EDTA) was added to digest the cells for 3-5 min. […]
Counter-ions that a name gives are not always drawn.
# key: entry, value: inhibition at 1 µM
measurement.name: inhibition at 1 µM (%)

- COC(=O)c1sccc1NC(=O)N1CCC(O)(c2cccc(OC)c2)C(CN(C)C)C1 (centres unmarked) [FWBF17, hydrochloride]: 0
- COc1cccc(C2(O)CCN(C(=O)Nc3ccc(Cl)cc3)CC2CN(C)C)c1.Cl (centres unmarked) [FWBF4, hydrochloride]: 0
- COc1cccc(C2(O)CCN(C(=O)NC34CC5CC(CC(C5)C3)C4)CC2CN(C)C)c1 (centres unmarked) [FWBF14, hydrochloride]: 0
- COc1cccc(C2(O)CCN(C(=O)N[C@@H](C)c3ccccc3)CC2CN(C)C)c1 (some centres unmarked) [FWBF13, hydrochloride]: 0
- COc1cccc(C2(O)CCN(C(=O)NC(C)C34CC5CC(CC(C5)C3)C4)CC2CN(C)C)c1.Cl (centres unmarked) [FWBF15, hydrochloride]: 0
- COc1cccc(C2(O)CCN(C(=O)Nc3ccc(F)c(Cl)c3)CC2CN(C)C)c1 (centres unmarked) [FWBF9, hydrochloride]: 21.6
- COc1cccc(C2(O)CCN(C(=O)Nc3ccc(F)c(F)c3)CC2CN(C)C)c1.Cl (centres unmarked) [FWBF8, hydrochloride]: 16.4
- COC(=O)c1ccsc1NC(=O)N1CCC(O)(c2cccc(OC)c2)C(CN(C)C)C1 (centres unmarked) [FWBF18, hydrochloride]: 16

====

# key: entry, value: pKi
# test.system: δ opioid receptor (Homo sapiens, UniProt P41143)
# Construct: expressed in transfected cells; host or cells: CHO cells (membranes)
# assay.comment: Competition binding assay on membranes of CHO cells expressing δ opioid receptor, [3H]-labeled ligand
# test.conditions: Table 5-1; read-out: δOR Ki
# Method: CHO cells expressing p opioid receptor, δ opioid receptor and κ opioid receptor were cultured in 10 cm^2 culture dishes (F-12 medium+10% neonatal bovine serum) for several days, and the culture fluid was aspirated after the cells had grown to the bottom of the dishes; 3 ml of PBS/EDTA solution (0.1M NaCl, 0.01M NaH2PO4, 0.04% EDTA) was added to digest the cells for 3-5 min. […]
pKi: −log10 of the molar value.
measurement.name: pKi

* COc1cccc(C2(O)CCN(C(=O)Cc3cccc([N+](=O)[O-])c3)CC2CN(C)C)c1.Cl (stereo not shown) [FWBE22, hydrochloride] | < 5.00
* COc1cccc(C2(O)CCN(C(=O)Cc3cccc(Br)c3)CC2CN(C)C)c1.Cl (stereo not shown) [FWBE11, hydrochloride] | < 5.00
* COc1cccc(C2(O)CCN(C(=O)Cc3cc(C(F)(F)F)cc(C(F)(F)F)c3)CC2CN(C)C)c1.Cl (stereo not shown) [FWBE1, hydrochloride] | 5.36
* COc1cccc(C2(O)CCN(C(=O)Cc3cccc(C(F)(F)F)c3)CC2CN(C)C)c1.Cl (stereo not shown) [FWBE4, hydrochloride] | < 5.00
